cell viability reference
# Test system: HCT116
# procedure-text: cell viability (CellTiter-Glo) relative to plate median (fraction of plate median); higher = more viable cells
# applied-conditions: 5 µM; treatment time 24 h; reporter: TCF4/Wnt
metric: cell viability

INSERT INTO measurements (molecule, measurement_target, test_value) VALUES
  ('CC(C)C[C@H]1C(=O)N2CCC[C@H]2C(=O)N1O [Cyclo(hydroxyleucylprolyl)]', 'HCT116', 0.973),
  ('c1ccc2c(c1)CN1CCCC1=N2', 'HCT116', 1.09),
  ('CC(=O)O[C@H]1C[C@@]2(C)[C@H](c3ccoc3)OC(=O)[C@H]3O[C@]32[C@@]2(C)C1[C@]1(C)C(C[C@H]2OC(C)=O)C(C)(C)[C@H](OC(C)=O)C[C@@H]1OC(C)=O (stereo partly drawn) [11alpha-ACETOXYKHIVORIN]', 'HCT116', 0.895),
  ('C[N+]1(CCCCC[N+]2(C)CCCC2)CCCC1', 'HCT116', 1.01),
  ('Nc1ccc(S(=O)(=O)Nc2ncccn2)cc1', 'HCT116', 1.04),
  ('C[N+](C)(C)CCO.[Cl-]', 'HCT116', 1.01),
  ('O=C(O)CCCN1C(=O)c2cccc3cccc(c23)C1=O', 'HCT116', 1.04),
  ('CC1(C)S[C@@H]2[C@H](NC(=O)COc3ccccc3)C(=O)N2[C@H]1C(=O)O', 'HCT116', 1.05),
  ('CC[C@H](C)C(=O)O[C@H]1C[C@H](O)C=C2C=C[C@H](C)[C@H](CC[C@@H](O)C[C@@H](O)CC(=O)O)[C@H]21', 'HCT116', 1.02),
  ('C[C@](N)(Cc1ccc(O)c(O)c1)C(=O)O', 'HCT116', 0.996),
  ('COc1cnc(NS(=O)(=O)c2ccc(N)cc2)nc1', 'HCT116', 1.04),
  ('COc1ccc(-c2cc(=O)c3ccccc3o2)cc1OC', 'HCT116', 1.01),
  ('COC(=O)c1c(C)cc(OC)cc1O', 'HCT116', 1.03),
  ('CC(=O)N[C@@H](CC(=O)N[C@@H](CCC(=O)O)C(=O)O)C(=O)O', 'HCT116', 1.05),
  ('CC(COc1ccccc1)NC(C)C(O)c1ccc(O)cc1 (stereo unspecified)', 'HCT116', 0.966),
  ('COc1cc(NS(=O)(=O)c2ccc(N)cc2)nc(OC)n1', 'HCT116', 0.924),
  ('CN(C)CCCN1c2ccccc2Sc2ccccc21', 'HCT116', 0.908),
  ('CC(=O)O[C@@H]1C[C@H]2C(C)(C)[C@@H](O)CC[C@]2(C)[C@H]2CC[C@@]3(C)[C@H](c4ccoc4)OC(=O)[C@H]4O[C@]43[C@@]21C [beta-DIHYDROGEDUNOL]', 'HCT116', 1.08),
  ('COc1c(O)cc(O)cc1O', 'HCT116', 0.694),
  ('CC1=CC2C(CC1=O)C(C)=CCC2C(C)C (stereo unspecified)', 'HCT116', 0.971),
  ('COC(=O)c1cc(O)c(=O)c2c(O)c(O)ccc2c1', 'HCT116', 0.895);

---

# System: SW480
# procedure-text: cell viability (CellTiter-Glo) relative to plate median (fraction of plate median); higher = more viable cells
# applied-conditions: 5 µM; treatment time 24 h; reporter: 7TFP
metric: cell viability

INSERT INTO assay_data (smiles_input, test_value) VALUES
  ('CC(=O)OCC(=O)[C@@]1(O)[C@H](OC(C)=O)C[C@H]2[C@@H]3CCC4=CC(=O)C=C[C@]4(C)[C@@]3(F)[C@@H](O)C[C@@]21C', 1.03),
  ('CC(=O)O[C@@H]1C[C@H]2C(C)(C)[C@H](O)C[C@H](O)[C@]2(C)[C@H]2CC[C@@]3(C)[C@H](c4ccoc4)OC(=O)[C@H]4O[C@]43[C@@]21C', 0.977),
  ('OCCOCCN1CCN(C2=Nc3ccccc3Sc3ccccc32)CC1', 0.991),
  ('CC1(C)S[C@@H]2[C@H](NC(=O)Cc3ccccc3)C(=O)N2[C@H]1C(=O)O', 1.02),
  ('CN(C)CCOC(c1ccccc1)c1ccccc1', 0.955),
  ('NC[C@@H]1O[C@@H](O[C@H]2[C@H](O)[C@@H](O[C@H]3O[C@H](CO)[C@@H](O)[C@H](N)[C@H]3O)[C@H](N)C[C@@H]2N)[C@@H](O)[C@H](O)[C@H]1O', 0.94),
  ('O=C(O)c1cc(-c2ccc(F)cc2F)ccc1O', 1.01),
  ('O=C(O)CN(CCN(CC(=O)O)CC(=O)O)CC(=O)O.[Na+].[Na+].[Na+]', 1.01);
